Hey, just so you know, these numbers are from the RNAGym collection of RNA variant scans (doi:10.7554/elife.80360).

B1: HDV Ribozyme (parent)
chain: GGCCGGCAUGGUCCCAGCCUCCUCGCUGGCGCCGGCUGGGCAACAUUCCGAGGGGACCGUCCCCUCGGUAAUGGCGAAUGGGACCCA

Variants of: B1
Experiment: self-cleavage, relative activity (ratio to wild type); higher = more cleavage; co-transcriptional
outcomeMeasure: self-cleavage
Format: numeric value only, no unit, no commentary.

Query: self-cleavage; subject: U27A C30A
0.525

Query: self-cleavage; subject: G55A C84G
0.635

Query: self-cleavage; subject: G25A C61U
0.225

Query: self-cleavage; subject: C7A C86G
0.571

Query: self-cleavage; subject: G2U A8G
0.0272

Query: self-cleavage; subject: G11U C22A
0.0179

Query: self-cleavage; subject: G81A A83G
0.236

Query: self-cleavage; subject: U37G A43C
0.133

Query: self-cleavage; subject: U20C C58U
0

Query: self-cleavage; subject: G10U A78C
0.0499

Query: self-cleavage; subject: C13A U60G
0.136

Query: self-cleavage; subject: A51C G55C
0.7

Query: self-cleavage; subject: C7G G25U
0.0831

Query: self-cleavage; subject: G5A U27G
0.217

Query: self-cleavage; subject: C19G G52C
0.121

Query: self-cleavage; subject: A71G G76U
1.1

Query: self-cleavage; subject: C63A G81C
0.188

Query: self-cleavage; subject: G5A C19A
0.0723

Query: self-cleavage; subject: C4A C86U
0.284

Query: self-cleavage; subject: C41A A45U
0.872

Query: self-cleavage; subject: C61G G74U
0.466

Query: self-cleavage; subject: C24G A71G
0.102
